# assay comment: Volume of distribution at steady state in dog at 5 mg/kg, iv or 5 mg/kg, po
# Type: ADME, organism-based, Canis lupus familiaris
# condition: in vivo, read-out: Vdss
measured metric: Vd (L/kg)
Write it as a number; the unit L/kg goes unstated.

For CC(C)(CO)NCC(=O)N1C[C@@H](F)C[C@H]1C(=O)c1nnc(C(C)(C)C)o1 , what is its reported Vd?
4.87

###

# assay comment: Plasma clearance in rat at 5 mg/kg, iv or 5 mg/kg, po
# Format: ADME, organism-based
measured metric: clearance (mL/min/kg)
Write it as a number; the unit mL/min/kg goes unstated.

For CC(C)(CO)NCC(=O)N1C[C@@H](F)C[C@H]1C(=O)c1nnc(C(C)(C)C)o1 , what is its reported clearance?
241

###

# assay comment: Half life in dog at 5 mg/kg, po
# Assay type: ADME, organism-based, Canis lupus familiaris
# Parameters: dose 5 mg/kg, route oral
# condition: in vivo
measured metric: half-life
Please give the number followed by its unit.

For CC(C)(CO)NCC(=O)N1C[C@@H](F)C[C@H]1C(=O)c1nnc(C(C)(C)C)o1 , what is its reported half-life?
1.47 h

###

# assay comment: Cmax in monkey at 5 mg/kg, po
# Format: ADME, organism-based, Macaca mulatta
# Design: dose 5 mg/kg, route oral
# condition: rhesus monkey, in vivo
measured metric: Cmax
Please give the number followed by its unit.

For CC(C)(CO)NCC(=O)N1C[C@@H](F)C[C@H]1C(=O)c1nnc(C(C)(C)C)o1 , what is its reported Cmax?
210 ng/mL

###

pIC50: −log10 of the molar value.
Assay system UniProt Q6V1X1; read-out recorded as pIC50.
Sequence (Q6V1X1 whole entry): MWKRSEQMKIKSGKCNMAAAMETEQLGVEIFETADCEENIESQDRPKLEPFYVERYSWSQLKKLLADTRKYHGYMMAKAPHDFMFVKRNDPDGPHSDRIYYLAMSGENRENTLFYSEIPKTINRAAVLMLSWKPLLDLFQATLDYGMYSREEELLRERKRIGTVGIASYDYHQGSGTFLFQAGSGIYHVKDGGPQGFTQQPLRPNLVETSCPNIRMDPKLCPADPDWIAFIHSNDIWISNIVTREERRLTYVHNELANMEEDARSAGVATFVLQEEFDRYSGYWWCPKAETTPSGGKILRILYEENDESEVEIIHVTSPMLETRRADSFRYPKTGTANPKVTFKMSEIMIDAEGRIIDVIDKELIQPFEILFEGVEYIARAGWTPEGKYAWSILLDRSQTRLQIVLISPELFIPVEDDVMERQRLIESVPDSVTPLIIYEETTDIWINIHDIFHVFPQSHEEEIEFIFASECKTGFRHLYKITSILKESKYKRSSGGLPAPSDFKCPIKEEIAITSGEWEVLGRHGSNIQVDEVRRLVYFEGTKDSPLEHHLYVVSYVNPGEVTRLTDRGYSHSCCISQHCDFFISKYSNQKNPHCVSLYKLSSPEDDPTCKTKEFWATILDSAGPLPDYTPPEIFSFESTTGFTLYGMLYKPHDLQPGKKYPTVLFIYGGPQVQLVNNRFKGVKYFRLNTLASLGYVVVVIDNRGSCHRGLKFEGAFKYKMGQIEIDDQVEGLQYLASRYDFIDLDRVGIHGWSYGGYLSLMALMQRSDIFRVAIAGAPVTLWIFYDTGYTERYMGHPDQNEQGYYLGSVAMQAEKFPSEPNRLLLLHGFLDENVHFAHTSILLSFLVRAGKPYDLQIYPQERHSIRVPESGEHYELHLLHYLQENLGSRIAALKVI

// lookup pIC50 | system=UniProt Q6V1X1 | key= CCC(C)(C)c1nnc(C(=O)[C@@H]2C[C@H](F)CN2C(=O)CNC(C)(C)C)o1
> 6.41

API: the following record is the query input.
// lookup pIC50 | system=UniProt Q6V1X1 | key= CC(C)(C)NCC(=O)N1CCC[C@H]1C(=O)c1noc(-c2ccc(F)cc2)n1
> 6.41

###

# assay comment: Volume of distribution at steady state in monkey at 5 mg/kg, iv or 5 mg/kg, po
# Format: ADME, organism-based, Macaca mulatta
# condition: rhesus monkey, in vivo, read-out: Vdss
measured metric: Vd (L/kg)
Write it as a number; the unit L/kg goes unstated.

For CC(C)(CO)NCC(=O)N1C[C@@H](F)C[C@H]1C(=O)c1nnc(C(C)(C)C)o1 , what is its reported Vd?
2.42

###

# assay comment: Cmax in rat at 5 mg/kg, po
# Format: ADME, organism-based
# Design: dose 5 mg/kg, route oral
# condition: in vivo
measured metric: Cmax (ng/mL)
Write it as a number; the unit ng/mL goes unstated.

For CC(C)(CO)NCC(=O)N1C[C@@H](F)C[C@H]1C(=O)c1nnc(C(C)(C)C)o1 , what is its reported Cmax?
30

###

# assay comment: Volume of distribution at steady state in rat at 5 mg/kg, iv or 5 mg/kg, po
# Type: ADME, organism-based
# condition: in vivo, read-out: Vdss
measured metric: Vd (L/kg)
Write it as a number; the unit L/kg goes unstated.

For CC(C)(CO)NCC(=O)N1C[C@@H](F)C[C@H]1C(=O)c1nnc(C(C)(C)C)o1 , what is its reported Vd?
14

Origin of values: ChEMBL document CHEMBL1149548
